Origin of the recorded values: ChEMBL document CHEMBL4406837

- assay.system: Cyclin-dependent kinase 2/cyclin E1 (Homo sapiens, UniProt P24941)
- assay.method.text: Competitive reversible inhibition of CDK2/cyclin E (unknown origin)
- Type: protein-complex assay
property.measured: IC50

Which IC50 is listed for CC[C@H](Nc1nc(NCc2cnc(C)cc2C)c2ncn(C(C)C)c2n1)[C@@H](C)O ?
5 nM

###

- assay.system: CDK9/Cyclin-H (Homo sapiens, UniProt P50750+P51946)
- Sequence (P50750 whole entry, one chain of several): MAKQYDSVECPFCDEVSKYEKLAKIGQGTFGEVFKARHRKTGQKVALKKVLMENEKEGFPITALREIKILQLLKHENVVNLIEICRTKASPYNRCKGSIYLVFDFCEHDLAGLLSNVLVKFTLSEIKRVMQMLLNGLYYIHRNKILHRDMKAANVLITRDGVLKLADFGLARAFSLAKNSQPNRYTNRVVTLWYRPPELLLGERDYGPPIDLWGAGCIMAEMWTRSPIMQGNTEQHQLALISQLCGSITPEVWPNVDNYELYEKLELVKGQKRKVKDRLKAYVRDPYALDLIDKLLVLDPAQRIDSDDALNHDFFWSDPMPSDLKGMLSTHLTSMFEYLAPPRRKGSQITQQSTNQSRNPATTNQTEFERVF
- assay.method.text: Inhibition of CDK9/cyclin H (unknown origin)
property.measured: pIC50
Quick note: pIC50 means taking -log10 of the concentration in moles per liter.

Which pIC50 is listed for CC(C)N1CCN(c2ccc(Nc3ncc4cc5n(c4n3)C3(CCCCC3)CNC5=O)nc2)CC1 ?
6.55

###

property.measured: pIC50
Quick note: pIC50 means taking -log10 of the concentration in moles per liter.

// lookup pIC50 | system=Cyclin-dependent kinase 13/Cyclin-K (Homo sapiens, UniProt Q14004) | key= CN(C)C/C=C/C(=O)Nc1ccc(C(=O)Nc2cccc(Nc3ncc(Cl)c(-c4c[nH]c5ccccc45)n3)c2)cc1
6.20

###

- assay.system: CDK9/cyclin T1 (Homo sapiens)
- Sequence (O60563 whole entry): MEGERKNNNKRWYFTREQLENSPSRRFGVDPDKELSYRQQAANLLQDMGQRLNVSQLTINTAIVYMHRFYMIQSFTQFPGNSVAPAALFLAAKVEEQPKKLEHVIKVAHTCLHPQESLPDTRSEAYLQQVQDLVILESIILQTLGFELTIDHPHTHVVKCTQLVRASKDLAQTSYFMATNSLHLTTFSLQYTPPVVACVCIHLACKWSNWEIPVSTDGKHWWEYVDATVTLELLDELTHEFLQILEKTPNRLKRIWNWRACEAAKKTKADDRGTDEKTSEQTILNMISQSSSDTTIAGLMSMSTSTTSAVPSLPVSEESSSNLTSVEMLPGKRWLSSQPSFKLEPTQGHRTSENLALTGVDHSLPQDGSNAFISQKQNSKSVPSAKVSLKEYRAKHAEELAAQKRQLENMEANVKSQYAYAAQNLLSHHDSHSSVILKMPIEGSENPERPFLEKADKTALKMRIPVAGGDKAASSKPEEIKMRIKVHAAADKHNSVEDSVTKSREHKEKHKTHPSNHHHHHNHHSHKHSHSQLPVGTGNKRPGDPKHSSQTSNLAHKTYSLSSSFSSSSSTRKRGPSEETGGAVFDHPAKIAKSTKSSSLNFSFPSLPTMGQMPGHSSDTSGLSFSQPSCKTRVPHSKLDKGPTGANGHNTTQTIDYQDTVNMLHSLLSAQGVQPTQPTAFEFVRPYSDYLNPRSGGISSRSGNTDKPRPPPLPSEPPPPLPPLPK
- Sequence (P50750 whole entry): as the sequence (P50750 whole entry, one chain of several) above
- assay.method.text: Competitive irreversible inhibition of CDK9/cyclin T (unknown origin)
- Format: protein-complex assay
property.measured: pIC50
Quick note: pIC50 means taking -log10 of the concentration in moles per liter.

Which pIC50 is listed for C=CC(=O)Nc1cccc(Nc2cc(N3CCCC[C@H]3CCO)nc3c(CC)cnn23)c1 ?
7.70

###

- assay.system: Cyclin-dependent kinase 2 (Homo sapiens)
- assay.method.text: Inhibition of CDK2 (unknown origin)
property.measured: IC50

Which IC50 is listed for O=C1Nc2ccc([N+](=O)[O-])cc2/C1=C1/Nc2ccc(O)cc2/C1=N\O ?
2 to 60 nM

###

- assay.method.text: Clearance in mouse
- Assay type: ADME, organism-based
- protocol.conditions: in vivo
property.measured: clearance (mL/min/kg)
The reply should contain only the number, in mL/min/kg.

Which clearance is listed for CN(C)C/C=C/C(=O)Nc1ccc(C(=O)N[C@H]2CCC[C@@H](Nc3ncc(Cl)c(-c4c[nH]c5ccccc45)n3)C2)cc1 ?
17

Which clearance is listed for CN(C)C/C=C/C(=O)Nc1ccc(C(=O)N[C@H]2CCC[C@@H](Nc3ncc(Cl)c(-c4c[nH]c5ccccc45)n3)C2)nc1 ?
29

Which clearance is listed for CN(C)C/C=C/C(=O)Nc1ccc(C(=O)Nc2cccc(Nc3ncc(Cl)c(-c4c[nH]c5ccccc45)n3)c2)cc1 ?
129

Which clearance is listed for CN(C)C/C=C/C(=O)Nc1ccc(C(=O)N[C@@]2(C)CCC[C@@H](Nc3ncc(Cl)c(-c4c[nH]c5ccccc45)n3)C2)nc1 ?
6

###

- Test system: OVCAR-3
- assay.method.text: Antiproliferative activity against human OVCAR3 cells
- Assay type: functional, cell-based
property.measured: pIC50
Quick note: pIC50 means taking -log10 of the concentration in moles per liter.

Which pIC50 is listed for C[C@@]1(O)CCC[C@H]1n1c(=O)c(C(F)F)cc2cnc(NC3CCN(S(C)(=O)=O)CC3)nc21 ?
7.32

###

- assay.system: CDK7/Cyclin H/MNAT1 (Homo sapiens, UniProt P50613)
- Sequence (P51946 whole entry): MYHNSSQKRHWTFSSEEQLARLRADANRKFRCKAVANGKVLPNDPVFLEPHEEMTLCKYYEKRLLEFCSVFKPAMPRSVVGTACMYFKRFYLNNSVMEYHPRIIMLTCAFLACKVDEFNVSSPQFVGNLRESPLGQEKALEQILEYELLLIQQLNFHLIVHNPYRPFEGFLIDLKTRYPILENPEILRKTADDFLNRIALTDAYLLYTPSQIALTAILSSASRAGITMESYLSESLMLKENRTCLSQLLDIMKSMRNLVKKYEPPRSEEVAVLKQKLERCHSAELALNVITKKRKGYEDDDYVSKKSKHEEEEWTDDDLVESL
- Sequence (P50613 whole entry): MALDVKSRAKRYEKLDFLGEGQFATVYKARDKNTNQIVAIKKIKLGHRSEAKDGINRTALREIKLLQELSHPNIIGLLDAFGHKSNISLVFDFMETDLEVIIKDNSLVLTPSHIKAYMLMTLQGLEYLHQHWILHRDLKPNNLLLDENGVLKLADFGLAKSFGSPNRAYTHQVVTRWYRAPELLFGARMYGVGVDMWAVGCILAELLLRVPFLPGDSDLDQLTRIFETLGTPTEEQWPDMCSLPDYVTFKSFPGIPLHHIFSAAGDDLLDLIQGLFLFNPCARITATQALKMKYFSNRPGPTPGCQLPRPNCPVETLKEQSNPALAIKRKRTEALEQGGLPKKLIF
- Sequence (P51948 whole entry, further chain): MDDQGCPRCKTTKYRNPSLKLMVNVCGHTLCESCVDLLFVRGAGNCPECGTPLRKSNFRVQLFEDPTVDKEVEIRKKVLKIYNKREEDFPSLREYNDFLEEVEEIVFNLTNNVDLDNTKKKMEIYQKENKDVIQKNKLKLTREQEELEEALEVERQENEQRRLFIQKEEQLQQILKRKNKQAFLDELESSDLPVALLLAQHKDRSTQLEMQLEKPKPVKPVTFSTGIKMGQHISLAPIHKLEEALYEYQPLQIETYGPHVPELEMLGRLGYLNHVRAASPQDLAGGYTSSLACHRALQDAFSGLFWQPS
- assay.method.text: Competitive irreversible inhibition of CDK7/cyclinH/MAT1 (unknown origin) using 5-FAM YSPTSPSYSPTSPSYSPTSPSKKKK as substrate in presence of Km ATP
- Format: protein-complex assay
Answer each item with its documented pIC50.
Quick note: pIC50 means taking -log10 of the concentration in moles per liter.

// lookup pIC50 | system=CDK7/Cyclin H/MNAT1 (Homo sapiens, UniProt P50613) | key= CN(C)C/C=C/C(=O)Nc1ccc(C(=O)N[C@H]2CCC[C@@H](Nc3ncc(Cl)c(-c4c[nH]c5ccccc45)n3)C2)nc1
7.64

// lookup pIC50 | system=CDK7/Cyclin H/MNAT1 (Homo sapiens, UniProt P50613) | key= CN(C)C/C=C/C(=O)Nc1ccc(C(=O)N[C@H]2CCC[C@@H](Nc3ncc(Cl)c(-c4c[nH]c5ccccc45)n3)C2)cc1
6.95

// lookup pIC50 | system=CDK7/Cyclin H/MNAT1 (Homo sapiens, UniProt P50613) | key= CN(C)C/C=C/C(=O)Nc1ccc(C(=O)N[C@@]2(C)CCC[C@@H](Nc3ncc(Cl)c(-c4c[nH]c5ccccc45)n3)C2)nc1
7.08
